binders and their reported Kd
Target: T1, human GREM1 (hGREM1-His; SEQ ID NO: 595) (human, UniProt O60565 25-184)
T1 construct: also called biotin-hGREM1-His; recombinant human GREM1 protein
T1 sequence: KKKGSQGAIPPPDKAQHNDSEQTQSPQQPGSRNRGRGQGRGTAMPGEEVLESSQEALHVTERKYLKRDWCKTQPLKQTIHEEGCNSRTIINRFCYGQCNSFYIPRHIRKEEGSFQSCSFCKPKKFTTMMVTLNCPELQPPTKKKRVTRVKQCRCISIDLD
Assay: SPR, Biacore T200, 37 C, mAb captured, hGREM1-His injected;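 further: HBS-EP running buffer containing heparin, association and dissociation phases tracked, KD computed as koff over kon and half-life derived from koff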
Your answer is read as nM, so omit the unit and give the number.

{"Binder": "H4H2926N (antibody, human IgG4, V domains shown, H4H prefix = human IgG4 Fc) VH: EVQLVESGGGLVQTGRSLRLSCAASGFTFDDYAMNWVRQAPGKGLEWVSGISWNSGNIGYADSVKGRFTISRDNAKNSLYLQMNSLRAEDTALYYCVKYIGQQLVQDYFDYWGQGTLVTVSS VL: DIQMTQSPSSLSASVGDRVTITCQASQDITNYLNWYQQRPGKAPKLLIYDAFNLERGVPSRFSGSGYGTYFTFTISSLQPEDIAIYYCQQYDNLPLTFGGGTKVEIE", "Kd (nM)": 11.1}

Req: Give the reported Kd for this binder. H4H6260P (antibody, human IgG4, V domains shown, H4H prefix = human IgG4 Fc) VH: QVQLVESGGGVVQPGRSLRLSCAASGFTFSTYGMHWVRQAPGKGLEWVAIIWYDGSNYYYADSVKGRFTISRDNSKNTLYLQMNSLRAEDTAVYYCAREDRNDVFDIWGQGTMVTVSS VL: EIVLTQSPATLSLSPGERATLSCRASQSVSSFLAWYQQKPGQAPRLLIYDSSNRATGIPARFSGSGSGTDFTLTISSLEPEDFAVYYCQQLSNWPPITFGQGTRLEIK
Resp: 1.71

Req: Give the reported Kd for this binder. H4H6232P (antibody, human IgG4, V domains shown, H4H prefix = human IgG4 Fc) VH: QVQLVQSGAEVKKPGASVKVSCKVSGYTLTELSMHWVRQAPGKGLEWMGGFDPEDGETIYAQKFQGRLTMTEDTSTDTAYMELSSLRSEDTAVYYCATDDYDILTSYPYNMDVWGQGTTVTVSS VL: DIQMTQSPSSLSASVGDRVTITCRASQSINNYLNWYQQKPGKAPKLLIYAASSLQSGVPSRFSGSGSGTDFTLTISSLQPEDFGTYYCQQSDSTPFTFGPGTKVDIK
Resp: 1.73

Req: Give the reported Kd for this binder. H4H6270P (antibody, human IgG4, V domains shown, H4H prefix = human IgG4 Fc) VH: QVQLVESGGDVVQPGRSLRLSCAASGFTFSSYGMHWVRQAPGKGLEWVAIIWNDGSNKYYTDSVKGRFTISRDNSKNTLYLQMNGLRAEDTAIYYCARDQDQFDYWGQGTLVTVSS VL: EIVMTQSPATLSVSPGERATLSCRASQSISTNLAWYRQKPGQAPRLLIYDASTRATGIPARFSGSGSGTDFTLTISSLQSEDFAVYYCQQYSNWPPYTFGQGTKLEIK
Resp: 6.79

Req: Give the reported Kd for this binder. H4H2895N (antibody, human IgG4, V domains shown, H4H prefix = human IgG4 Fc) VH: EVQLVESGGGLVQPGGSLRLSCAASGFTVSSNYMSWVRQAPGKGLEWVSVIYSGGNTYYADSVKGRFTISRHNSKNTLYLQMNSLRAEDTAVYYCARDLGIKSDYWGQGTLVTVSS VL: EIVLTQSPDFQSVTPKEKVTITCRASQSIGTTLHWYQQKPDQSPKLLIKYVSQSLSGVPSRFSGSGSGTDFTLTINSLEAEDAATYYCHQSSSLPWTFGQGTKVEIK
Resp: 1.23

Req: Give the reported Kd for this binder. H4H6256P (antibody, human IgG4, V domains shown, H4H prefix = human IgG4 Fc) VH: QVQLVESGGGVVQPGRSLRLSCAASGFTFSAYGMHWVRQGPGKGLEWVAVIWYDGSNKYYADSVKGRFTISRDNSKNTLYLQMNRLRAEDTAVYYCARDDYGDSPGFDHWGQGTLVTVSS VL: EIVMTQSPATLSVSPGERATLSCRASQSVSSELAWYQQKPGQAPRLLLYGASTRATGIPARFSGSGSGTEFTLTISSLQSEDFAVYYCQQYSNWPPWTFGQGTKVEIK
Resp: 4.08

Req: Give the reported Kd for this binder. H4H6248P (antibody, human IgG4, V domains shown, H4H prefix = human IgG4 Fc) VH: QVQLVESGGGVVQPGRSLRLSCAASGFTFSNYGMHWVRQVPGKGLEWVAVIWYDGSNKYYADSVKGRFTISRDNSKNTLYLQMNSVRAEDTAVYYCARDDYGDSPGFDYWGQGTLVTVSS VL: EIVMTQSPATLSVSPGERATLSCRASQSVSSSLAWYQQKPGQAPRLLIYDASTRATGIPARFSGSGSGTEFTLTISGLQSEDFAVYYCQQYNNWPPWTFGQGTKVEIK
Resp: 5.69
